System: Escherichia coli
Test: Antibacterial activity against Escherichia coli NCIM 2065 after 24 hrs by agar well diffusion assay
Format: functional
Conditions: NCIM 2065, 24 h
OBSERVATION TYPE: MIC (µg/mL)
Your answer should be a plain number; it is taken to be in µg/mL.

For orientation, consider the following solved cases.
{"columns": ["CHEMICAL STRING", "MIC, µg/mL"],
 "data": [
  ["Cc1ccc(S(=O)(=O)NC(=O)Nc2ccccc2C(=O)/C=C/c2c3ccccc3cc3ccccc23)cc1", 512],
  ["Cc1ccc(S(=O)(=O)NC(=O)Nc2ccccc2C(=O)/C=C/c2ccc[nH]2)cc1", 128],
  ["CCOc1cc(/C=C/C(=O)c2ccccc2NC(=O)NS(=O)(=O)c2ccc(C)cc2)ccc1O", 64]
]}

Notebook entry, Escherichia coli assay: MIC of `Cc1ccc(S(=O)(=O)NC(=O)Nc2ccccc2C(=O)/C=C/c2ccc(Cl)cc2)cc1` = ?
32

Notebook entry, Escherichia coli assay: MIC of `Cc1ccc(S(=O)(=O)NC(=O)Nc2ccccc2C(=O)/C=C/c2ccc(F)cc2)cc1` = ?
32

###

Tested on: Penicillium chrysogenum
Experiment: Antifungal activity against Penicillium chrysogenum NCIM 738 after 48 hrs by agar well diffusion assay
Format: functional
Details: NCIM 738, 48 h
MIC strictly under 300 µg/mL means Satisfied; at 300 µg/mL or over means Not satisfied.

Lab note: MIC threshold 300 µg/mL. Does this compound come in strictly under it? `Cc1ccc(/C=C/C(=O)c2ccccc2NC(=O)NS(=O)(=O)c2ccc(C)cc2)cc1`
Satisfied

Lab note: MIC threshold 300 µg/mL. Does this compound come in strictly under it? `COc1ccc(/C=C/C(=O)c2ccccc2NC(=O)NS(=O)(=O)c2ccc(C)cc2)c(OC)c1`
Satisfied

Lab note: MIC threshold 300 µg/mL. Does this compound come in strictly under it? `Cc1ccc(S(=O)(=O)NC(=O)Nc2ccccc2C(=O)/C=C/c2c3ccccc3cc3ccccc23)cc1`
Not satisfied

###

# maps each entry to its log10 of MIC
System: Escherichia coli
Assay: Antibacterial activity against Escherichia coli NCIM 2065 after 24 hrs by agar well diffusion assay
Type: functional
Conditions: NCIM 2065, 24 h
Record value = log10 of MIC given in µg/mL.

Requested read-out: log10 of MIC. Entry: `Cc1ccc(S(=O)(=O)NC(=O)Nc2ccccc2C(=O)/C=C/c2cc(O)ccc2[N+](=O)[O-])cc1`
1.20

Requested read-out: log10 of MIC. Entry: `Cc1ccc(S(=O)(=O)NC(=O)Nc2ccccc2C(=O)/C=C/c2ccc(N(C)C)cc2)cc1`
1.81

Requested read-out: log10 of MIC. Entry: `COc1cc(/C=C/C(=O)c2ccccc2NC(=O)NS(=O)(=O)c2ccc(C)cc2)ccc1O`
1.81

Requested read-out: log10 of MIC. Entry: `Cc1ccc(S(=O)(=O)NC(=O)Nc2ccccc2C(=O)/C=C/C=C/c2ccccc2)cc1`
2.11

Requested read-out: log10 of MIC. Entry: `Cc1ccc(S(=O)(=O)NC(=O)Nc2ccccc2C(=O)/C=C/c2cccc([N+](=O)[O-])c2)cc1`
2.41

###

Experiment: Toxicity against Brine shrimp nauplii after 24 hrs
Type: organism-based
Details: artemia salina, in vivo; read-out: ED50
# maps each entry to its LC50 at 24 h
Your answer should be a plain number; it is taken to be in µg/mL.

{"columns": ["CHEMICAL STRING", "LC50 at 24 h (µg/mL)"],
 "data": [
  ["Cc1ccc(S(=O)(=O)NC(=O)Nc2ccccc2C(=O)/C=C/c2ccccc2[N+](=O)[O-])cc1", 40.1],
  ["Cc1ccc(S(=O)(=O)NC(=O)Nc2ccccc2C(=O)/C=C/c2ccc(F)cc2)cc1", 3.96],
  ["COc1cc([C@@H]2c3cc4c(cc3[C@H](O)[C@H]3COC(=O)[C@H]23)OCO4)cc(OC)c1OC", 3.61],
  ["Cc1ccc(S(=O)(=O)NC(=O)Nc2ccccc2C(=O)/C=C/c2ccncc2)cc1", 16.8]
]}

Requested read-out: LC50 at 24 h. Entry: `COc1cc(/C=C/C(=O)c2ccccc2NC(=O)NS(=O)(=O)c2ccc(C)cc2)ccc1O`
17.8

Requested read-out: LC50 at 24 h. Entry: `Cc1ccc(S(=O)(=O)NC(=O)Nc2ccccc2C(=O)/C=C/c2cccc([N+](=O)[O-])c2)cc1`
44.5

Requested read-out: LC50 at 24 h. Entry: `CCOc1cc(/C=C/C(=O)c2ccccc2NC(=O)NS(=O)(=O)c2ccc(C)cc2)ccc1O`
19.2

Requested read-out: LC50 at 24 h. Entry: `Cc1ccc(S(=O)(=O)NC(=O)Nc2ccccc2C(=O)/C=C/c2ccccc2O)cc1`
32.3

Requested read-out: LC50 at 24 h. Entry: `Cc1ccc(/C=C/C(=O)c2ccccc2NC(=O)NS(=O)(=O)c2ccc(C)cc2)cc1`
15.3

Requested read-out: LC50 at 24 h. Entry: `C=CCOc1ccc(/C=C/C(=O)c2ccccc2NC(=O)NS(=O)(=O)c2ccc(C)cc2)cc1`
6.11

Requested read-out: LC50 at 24 h. Entry: `Cc1ccc(S(=O)(=O)NC(=O)Nc2ccccc2C(=O)/C=C/c2ccccc2)cc1`
25

Requested read-out: LC50 at 24 h. Entry: `Cc1ccc(S(=O)(=O)NC(=O)Nc2ccccc2C(=O)/C=C/c2cccc(O)c2)cc1`
39.3

Requested read-out: LC50 at 24 h. Entry: `Cc1ccc(S(=O)(=O)NC(=O)Nc2ccccc2C(=O)/C=C/c2ccc(Cl)cc2)cc1`
6.92

Requested read-out: LC50 at 24 h. Entry: `Cc1ccc(S(=O)(=O)NC(=O)Nc2ccccc2C(=O)/C=C/c2ccc(N(C)C)cc2)cc1`
38.1

Requested read-out: LC50 at 24 h. Entry: `Cc1ccc(S(=O)(=O)NC(=O)Nc2ccccc2C(=O)/C=C/c2cccc(Br)c2)cc1`
4.02

Requested read-out: LC50 at 24 h. Entry: `COc1cccc(/C=C/C(=O)c2ccccc2NC(=O)NS(=O)(=O)c2ccc(C)cc2)c1`
23.2

Requested read-out: LC50 at 24 h. Entry: `Cc1ccc(S(=O)(=O)NC(=O)Nc2ccccc2C(=O)/C=C/c2ccc(O)cc2)cc1`
24.3

Requested read-out: LC50 at 24 h. Entry: `Cc1ccc(S(=O)(=O)NC(=O)Nc2ccccc2C(=O)/C=C/c2c3ccccc3cc3ccccc23)cc1`
44.3

Requested read-out: LC50 at 24 h. Entry: `COc1ccc(/C=C/C(=O)c2ccccc2NC(=O)NS(=O)(=O)c2ccc(C)cc2)c(OC)c1`
16
